Measured cAMP Rel EC50 values are reported for all entries that follow.
# experimentalSystem: T1, human GIP receptor (human) (UniProt P48546)
# T1 sequence (looked up): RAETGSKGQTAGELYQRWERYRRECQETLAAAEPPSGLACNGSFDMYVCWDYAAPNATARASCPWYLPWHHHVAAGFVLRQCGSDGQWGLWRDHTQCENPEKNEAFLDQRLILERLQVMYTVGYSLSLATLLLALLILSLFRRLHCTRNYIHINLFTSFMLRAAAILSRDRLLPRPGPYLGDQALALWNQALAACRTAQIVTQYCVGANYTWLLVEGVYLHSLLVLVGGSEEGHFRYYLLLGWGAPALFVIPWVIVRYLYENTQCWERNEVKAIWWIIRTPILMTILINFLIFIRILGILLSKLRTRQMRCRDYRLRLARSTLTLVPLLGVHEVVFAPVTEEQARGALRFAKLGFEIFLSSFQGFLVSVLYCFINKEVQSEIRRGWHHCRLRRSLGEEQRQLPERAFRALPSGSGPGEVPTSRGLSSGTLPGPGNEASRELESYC
# assayNotes: cell-based or functional assay
Your answer should be a plain number; it is taken to be in nM.

Enquiry: Please give the measured cAMP Rel EC50 for this binder: YXQGTFTSDXSQXLDKKAQXAFIEYLIEXGPSSGAPPPSGSGE (not fully specified; synthetic construct; SITE 2: note = 2-Aminoisobutyric Acid; SITE 10: note = 3-(4-Pyridyl)-L-alanine; SITE 13: note = alpha-methyl-leucine; SITE 17: note = Lysine is chemically modified through conjugation of the epsilon-amino group of the Lysine side chain with (gamma-Glu)2-CO-(CH2)16-CO2H; SITE 20:) [Example 893 (SEQ ID NO: 899)]
Return: 21.4
